system: HiBiT-tagged HTT protein; assay: HiBiT protein abundance assay, HTT (K562 HiBiT knock-in cells); format: cell-based, human; details: 24 hours
pIC50: −log10 of the molar value. Counter-ions that a name gives are not always drawn.
readout.kind: pIC50

CN[C@@H]1CCN(c2ccc(C(=O)Nc3cc(F)c4nc(C)cn4c3)c3nnccc23)C1	6.00 to 7.00
CCNC1CCN(c2ccc(C(=O)Nc3cc(F)c4nc(C)cn4c3)c3nccnc23)CC1	6.00 to 7.00
Cc1cn2cc(NC(=O)c3ccc(N4CCNCC4)c4cccnc34)cc(F)c2n1	6.00 to 7.00
Cc1cn2cc(NC(=O)c3ccc(N4CCC5(CCN5)CC4)c4nccnc34)cc(F)c2n1	6.00 to 7.00
COc1ncc2c(N3C[C@@H](C)N[C@@H](C)C3)ccc(C(=O)Nc3cc(F)c4nc(C)cn4c3)c2n1	6.00 to 7.00
Cc1cn2cc(NC(=O)c3ccc(N4CCNCC4)c4cncnc34)cc(F)c2n1	6.00 to 7.00
COc1nc2c(N3C[C@@H](C)N[C@@H](C)C3)ccc(C(=O)Nc3cc(F)c4nc(C)cn4c3)c2nc1C [Compound 260, 2,2,2-trifluoroacetate]	5.00 to 6.00
COCCOc1ncc2c(N3CCNCC3)ccc(C(=O)Nc3cc(F)c4nc(C)cn4c3)c2n1	< 5.00
Cc1nc(NC(=O)c2ccc(N3CCNCC3)c3ccnnc23)cc2cn(C)nc12	5.00 to 6.00
Cc1cn2cc(NC(=O)c3ccc(N4C[C@H]5CC[C@@H](C4)N5)c4ccnnc34)cc(F)c2n1	5.00 to 6.00
Cc1cn2cc(NC(=O)c3ccc(N4C[C@@H](C)N[C@@H](C)C4)c4nccnc34)nc2c(C)n1	< 5.00
COCCOc1ccc2c(N3CCNCC3)ccc(C(=O)Nc3cc(F)c4nc(C)cn4c3)c2n1	< 5.00
Cc1cn2nc(NC(=O)c3ccc(N4CCNCC4)c4ccnnc34)nc2c(C)n1	5.00 to 6.00
Cc1cn2cc(NC(=O)c3ccc(N4CCC(N5CCCC5)C4)c4ccnnc34)cc(F)c2n1 (stereo not drawn)	5.00 to 6.00
Cc1cn2cc(NC(=O)c3ccc(N4CCC5(CCN5)CC4)c4ccnnc34)cc(F)c2n1 [Compound 171, trifluoroacetate]	6.00 to 7.00
Cc1cn2cc(NC(=O)c3ccc([C@@]45CCNCC4C5)c4nccnc34)cc(F)c2n1 (stereo in doubt) [Compound 248, 2,2,2-trifluoroacetate]	5.00 to 6.00
Cc1c(O)c(NC(=O)c2ccc(N3C[C@@H](C)N[C@@H](C)C3)c3nccnc23)cc2cn(C)nc12	< 5.00
Cc1cn2nc(NC(=O)c3ccc(N4CCNCC4)c4ccnnc34)cc(C)c2n1	6.00 to 7.00
Cc1cn2cc(NC(=O)c3ccc(N4CCC(NC5CC5)CC4)c4nccnc34)cc(F)c2n1	6.00 to 7.00
Cc1cn2cc(NC(=O)c3ccc(N4CCN[C@H](C5CC5)C4)c4nccnc34)cc(F)c2n1	5.00 to 6.00
Cc1ccc2c(N3CCC(N(C)C)CC3)ccc(C(=O)Nc3cc(F)c4nc(C)cn4c3)c2n1	5.00 to 6.00
Cc1cn2cc(NC(=O)c3ccc(C4CCN(C)CC4)c4ccnnc34)cc(F)c2n1	6.00 to 7.00
COCCOc1ccc2c(N3CCC(N(C)C)CC3)ccc(C(=O)Nc3cc(F)c4nc(C)cn4c3)c2n1	< 5.00
C[C@@H]1CN(c2ccc(C(=O)Nc3cc(F)c4ncccc4c3)c3nccnc23)C[C@H](C)N1	< 5.00
Cc1cn2cc(NC(=O)c3ccc(N4CCC(N)(CF)CC4)c4nccnc34)cc(F)c2n1	5.00 to 6.00
Cc1cnc2c(N3CCC(N(C)C)CC3)ccc(C(=O)Nc3cc(F)c4nc(C)cn4c3)c2n1	> 7.00
Cc1cn2cc(NC(=O)c3ccc(N4CCN[C@@H](C(C)C)C4)c4nccnc34)cc(F)c2n1	< 5.00
Cc1cn2cc(NC(=O)c3ccc(N4C[C@@H](C)N[C@@H](C)C4)c4cncnc34)cc(F)c2n1	5.00 to 6.00
Cc1cn2cc(NC(=O)c3ccc(N4CCN(C)C5(CC5)C4)c4nccnc34)cc(F)c2n1	6.00 to 7.00
Cc1cn2cc(NC(=O)c3ccc(N4CCNC5(CC5)C4)c4ccnnc34)cc(F)c2n1	5.00 to 6.00
